The origin of these recorded values is ChEMBL document CHEMBL2390919.

- Assay System: UniProt O42275
Recorded Metric: IC50 (nM)

Structure	Number
Cc1cccc(Nc2ccccc2C(=O)NCCCCCC(=O)NCCCCCCNc2c3c(nc4cc(Cl)ccc24)CCCC3)c1C	2.94
CCCCCCCCCNc1c2c(nc3cc(Cl)ccc13)CCCC2	2.27
Cc1cccc(Nc2ccccc2C(=O)NCCC(=O)NCCCCNc2c3c(nc4cc(Cl)ccc24)CCCC3)c1C	2470
Cc1cccc(Nc2ccccc2C(=O)NCCCCCCCCCCNc2c3c(nc4cc(Cl)ccc24)CCCC3)c1C	0.776
Cc1cccc(Nc2ccccc2C(=O)NCCC(=O)NCCCCCCNc2c3c(nc4cc(Cl)ccc24)CCCC3)c1C	1.14
NCCCCCCCCNc1c2c(nc3cc(Cl)ccc13)CCCC2	1.14
NCCCCNc1c2c(nc3cc(Cl)ccc13)CCCC2	38
NCCCCCNc1c2c(nc3cc(Cl)ccc13)CCCC2	51
OCCCCCNc1c2c(nc3cc(Cl)ccc13)CCCC2	72.5
Cc1cccc(Nc2ccccc2C(=O)NCCCCCCNc2c3c(nc4cc(Cl)ccc24)CCCC3)c1C	7230
NCCCCCCCCCCNc1c2c(nc3cc(Cl)ccc13)CCCC2	0.932
NCCCCCCNc1c2c(nc3cc(Cl)ccc13)CCCC2	11.1
Cc1cccc(Nc2ccccc2C(=O)NCCCC(=O)NCCCCNc2c3c(nc4cc(Cl)ccc24)CCCC3)c1C	13.6
CCCCCNc1c2c(nc3cc(Cl)ccc13)CCCC2	26.3
CCCCCCNc1c2c(nc3cc(Cl)ccc13)CCCC2	65.3
CCCCCCCCNc1c2c(nc3cc(Cl)ccc13)CCCC2	19.6
Cc1cccc(Nc2ccccc2C(=O)NCCCCCCCCCCCCNc2c3c(nc4cc(Cl)ccc24)CCCC3)c1C	2360
Cc1cccc(Nc2ccccc2C(=O)NCCCC(=O)NCCCCCCCNc2c3c(nc4cc(Cl)ccc24)CCCC3)c1C	7.91
Cc1cccc(Nc2ccccc2C(=O)NCCCCCC(=O)NCCCCCCCNc2c3c(nc4cc(Cl)ccc24)CCCC3)c1C	11.1
Cc1cccc(Nc2ccccc2C(=O)NCCCC(=O)NCCCCCCNc2c3c(nc4cc(Cl)ccc24)CCCC3)c1C	41.7
OCCCCCCNc1c2c(nc3cc(Cl)ccc13)CCCC2	42.4

---

- Assay System: Acetylcholinesterase (Electrophorus electricus)
- Sequence (O42275 whole entry): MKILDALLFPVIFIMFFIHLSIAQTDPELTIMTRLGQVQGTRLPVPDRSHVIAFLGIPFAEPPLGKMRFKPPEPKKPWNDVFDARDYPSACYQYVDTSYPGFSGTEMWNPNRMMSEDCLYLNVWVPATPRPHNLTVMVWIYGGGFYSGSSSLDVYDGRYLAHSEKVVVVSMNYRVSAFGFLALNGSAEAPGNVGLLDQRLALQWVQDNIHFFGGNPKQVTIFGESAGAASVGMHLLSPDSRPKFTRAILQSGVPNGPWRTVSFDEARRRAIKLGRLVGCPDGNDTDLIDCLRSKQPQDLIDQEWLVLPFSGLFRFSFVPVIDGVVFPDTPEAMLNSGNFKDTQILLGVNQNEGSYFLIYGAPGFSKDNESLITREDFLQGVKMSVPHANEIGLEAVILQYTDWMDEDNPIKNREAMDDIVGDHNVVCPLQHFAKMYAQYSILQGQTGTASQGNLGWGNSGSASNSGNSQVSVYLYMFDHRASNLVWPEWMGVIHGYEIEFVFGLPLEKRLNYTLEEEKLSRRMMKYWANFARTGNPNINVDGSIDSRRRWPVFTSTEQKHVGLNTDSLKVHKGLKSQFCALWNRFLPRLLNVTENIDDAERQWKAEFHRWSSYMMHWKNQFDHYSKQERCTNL
- Experiment: Ratio of tacrine IC50 to compound IC50 for electric eel AChE
Recorded Metric: Ratio IC50

Structure	Comparison Symbol	Number
NCCCCCCCCNc1c2c(nc3cc(Cl)ccc13)CCCC2	=	50
CCCCCCCCCCNc1c2c(nc3cc(Cl)ccc13)CCCC2	=	10
CCCCCCCCCNc1c2c(nc3cc(Cl)ccc13)CCCC2	=	20
CCCCCNc1c2c(nc3cc(Cl)ccc13)CCCC2	<	5
NCCCCCCCCCCNc1c2c(nc3cc(Cl)ccc13)CCCC2	=	50
NCCCCCCCCCCCCNc1c2c(nc3cc(Cl)ccc13)CCCC2	=	50
CCCCCCCNc1c2c(nc3cc(Cl)ccc13)CCCC2	=	3
CCCCCCCCNc1c2c(nc3cc(Cl)ccc13)CCCC2	<	5
CCCCCCNc1c2c(nc3cc(Cl)ccc13)CCCC2	<	5
NCCCCCCCCCNc1c2c(nc3cc(Cl)ccc13)CCCC2	=	50

---

- Assay System: Acetylcholinesterase (Electrophorus electricus) (UniProt O42275)
- Experiment: Non competitive inhibition of electric eel AChE using acetylthiocholine as substrate by Lineweaver-Burk plot analysis
The source made the active and inactive calls. The rule behind the calls is not given here.
Recorded Metric: inhibition

Structure	Recorded Metric	Result
OCCCCCCNc1c2c(nc3cc(Cl)ccc13)CCCC2	inhibition	Active
CCCCCCCNc1c2c(nc3cc(Cl)ccc13)CCCC2	inhibition	Active
NCCCCCCCCCNc1c2c(nc3cc(Cl)ccc13)CCCC2	inhibition	Active
NCCCCCCNc1c2c(nc3cc(Cl)ccc13)CCCC2	inhibition	Active
